# Subject Of Test: T1, CDK9/Cyclin T1 (Homo sapiens, UniProt P50750)
# T1 construct: purchased Invitrogen
# Assay Notes: CDK9 Enzymatic Activity Assay (Lance Kinase Activity Assay, FRET)
# Assay type: biochemical
# Test Context: Table 7, upper part
Collected IC50 values appear next to each entry.

>  <Molecule>
CC(C)c1cnn2c(N[C@H](C)c3cccc(Cl)c3)nc(OC3CCN(C)CC3)nc12 [(VII-ad)]

>  <IC50>
> 2500 nM

$$$$
>  <Molecule>
COc1ccccc1[C@H](C)Nc1nc([S+]([O-])C2CCNCC2)nc2c(C(C)C)cnn12 (some centres unmarked) [(X-c)]

>  <IC50>
> 2500 nM

$$$$
